Test: Oral bioavailability in Beagle dog
Type: ADME, organism-based, Canis lupus familiaris
Details: in vivo

- compound string: "Cc1cc(COc2ccc(C(=O)N[C@@H]3C[C@@]4(CCCO4)C[C@@H]3C(=O)NO)cc2)c2ccccc2n1"
  bioavailability: "68%"

====

Target: 72 kDa type IV collagenase (Homo sapiens, UniProt P08253)
Sequence (P08253 whole entry): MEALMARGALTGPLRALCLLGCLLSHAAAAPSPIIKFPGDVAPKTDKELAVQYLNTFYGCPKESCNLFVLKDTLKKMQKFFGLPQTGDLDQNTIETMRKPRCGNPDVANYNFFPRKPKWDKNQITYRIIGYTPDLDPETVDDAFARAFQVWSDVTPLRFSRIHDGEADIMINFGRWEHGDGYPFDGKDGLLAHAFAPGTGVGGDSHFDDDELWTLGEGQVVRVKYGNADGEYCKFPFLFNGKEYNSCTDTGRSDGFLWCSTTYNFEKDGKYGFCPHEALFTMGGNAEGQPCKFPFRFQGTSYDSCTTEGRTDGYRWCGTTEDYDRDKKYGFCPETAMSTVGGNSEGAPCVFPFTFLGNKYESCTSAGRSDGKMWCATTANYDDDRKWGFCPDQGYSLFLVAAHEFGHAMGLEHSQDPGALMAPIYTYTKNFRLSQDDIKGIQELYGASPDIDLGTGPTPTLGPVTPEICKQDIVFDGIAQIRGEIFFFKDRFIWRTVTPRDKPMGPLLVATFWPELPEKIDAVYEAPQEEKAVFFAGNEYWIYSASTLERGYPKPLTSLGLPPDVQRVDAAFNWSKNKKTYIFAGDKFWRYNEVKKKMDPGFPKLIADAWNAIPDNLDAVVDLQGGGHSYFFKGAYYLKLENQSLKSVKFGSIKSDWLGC
Assay: Inhibition of MMP2
pKi: −log10 of the molar value.
The entries below are paired with their reported pKi.

- compound string: "Cc1cc(COc2ccc(C(=O)N[C@@H]3C[C@]4(CCCO4)C[C@@H]3C(=O)NO)cc2)c2ccccc2n1"
  pKi: 5.72
- compound string: "Cc1cc(COc2ccc(C(=O)N[C@@H]3C[C@@]4(CCCO4)C[C@@H]3C(=O)NO)cc2)c2ccccc2n1"
  pKi: 5.87

====

Assay: Clearance in Sprague-Dawley rat at 5 mg/kg, iv
Assay type: ADME, organism-based
Parameters: dose 5 mg/kg, route intravenous
Conditions: in vivo
quantity measured: clearance (mL/min/kg)

- compound string: "Cc1cc(COc2ccc(C(=O)N[C@@H]3C[C@]4(CCCO4)C[C@@H]3C(=O)NO)cc2)c2ccccc2n1"
  quantity measured: "clearance"
  recorded number: 13.3
- compound string: "Cc1cc(COc2ccc(C(=O)N[C@@H]3C[C@@]4(CCCO4)C[C@@H]3C(=O)NO)cc2)c2ccccc2n1"
  quantity measured: "clearance"
  recorded number: 11.7

====

Test system: Blood
Assay: Inhibition of LPS-induced TNFalpha production in human whole blood
Type: functional, tissue-based
pIC50: −log10 of the molar value.
The entries below are paired with their reported pIC50.

- compound string: "Cc1cc(COc2ccc(C(=O)N[C@@H]3C[C@@]4(CCCO4)C[C@@H]3C(=O)NO)cc2)c2ccccc2n1"
  pIC50: 6.97
- compound string: "Cc1cc(COc2ccc(C(=O)N[C@@H]3C[C@]4(CCCO4)C[C@@H]3C(=O)NO)cc2)c2ccccc2n1"
  pIC50: 6.84

====

pKi: −log10 of the molar value.
This section lists pKi readings for Matrix metalloproteinase-9 (Homo sapiens).

- compound string: "Cc1cc(COc2ccc(C(=O)N[C@@H]3C[C@]4(CCCO4)C[C@@H]3C(=O)NO)cc2)c2ccccc2n1"
  pKi: 5.90
- compound string: "Cc1cc(COc2ccc(C(=O)N[C@@H]3C[C@@]4(CCCO4)C[C@@H]3C(=O)NO)cc2)c2ccccc2n1"
  pKi: 5.84

====

Assay: Volume of distribution at steady state in Sprague-Dawley rat at 5 mg/kg, iv
Format: ADME, organism-based
Set-up: dose 5 mg/kg, route intravenous
Details: in vivo, read-out: Vdss

- compound string: "Cc1cc(COc2ccc(C(=O)N[C@@H]3C[C@@]4(CCCO4)C[C@@H]3C(=O)NO)cc2)c2ccccc2n1"
  Vd / L/kg: 0.3
- compound string: "Cc1cc(COc2ccc(C(=O)N[C@@H]3C[C@]4(CCCO4)C[C@@H]3C(=O)NO)cc2)c2ccccc2n1"
  Vd / L/kg: 1.4

====

The entries below are paired with their reported half-life.
Assay: Half life in Sprague-Dawley rat at 5 mg/kg, iv
Type: ADME, organism-based
Design: dose 5 mg/kg, route intravenous
Details: in vivo

- compound string: "Cc1cc(COc2ccc(C(=O)N[C@@H]3C[C@@]4(CCCO4)C[C@@H]3C(=O)NO)cc2)c2ccccc2n1"
  half-life: "252 min"
- compound string: "Cc1cc(COc2ccc(C(=O)N[C@@H]3C[C@]4(CCCO4)C[C@@H]3C(=O)NO)cc2)c2ccccc2n1"
  half-life: "414 min"
